# EXPERIMENTAL_DETAILS: Metabolic stability of the compound in human liver microsomes S9 fraction preincubated with NADPH for 10 mins followed by compound addition at 50 uM measured upto 360 mins by HPLC analysis
# Format: ADME, subcellular
# CONDITION_NOTES: read-out: Stability
Hi there, I'd appreciate the recorded remaining at 6 h, 50 µM for every entry that follows.
Write the number in % without appending the unit.

Record `O=C(Nc1ccc([N+](=O)[O-])c(Cl)c1)c1cc(Cl)ccc1O` . Reported remaining at 6 h, 50 µM: 41

`O=C(Nc1cccc(C(F)(F)F)c1)c1cc(Cl)ccc1O` yielded remaining at 6 h, 50 µM of 47

Lookup result for `O=C(Nc1cccc(Cl)c1)c1cc(Cl)ccc1O` ; measured remaining at 6 h, 50 µM: 33
